Where these numbers come from: PubChem BioAssay

Procedure details: fission yeast growth modulation, primary screen, strain 972, OD600, 24 h, no modulator (AID 1090);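 also: basal condition with compound alone and no growth modifier present; test concentration not given here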
Settings: S. pombe 972 growth, higher = more signal, called active from +8 up or from −8 down
Reported z-score is given for each of the following molecules.
// response body must contain only the number

INSERT INTO results (molecule, experimental_endpoint, recorded_value) VALUES
  ('COCCOC(=O)N1C(=O)[C@@]2(c3cc(C#CCC(C(=O)OC)C(=O)OC)ccc31)[C@H](C(=O)N1CCc3cc(OC)c(OC)cc3C1)[C@H]1C(=O)O[C@H](c3ccccc3)[C@H](c3ccccc3)N1[C@@H]2c1ccccc1OCCO', 'z-score', 1.02);

QUERY: # query: z-score of entry CN1C(=O)C2C(C1=O)C1C=C(CCCO)C2C(C2CC2)N1C (centres undefined)
RESULT: -0.339

QUERY: # query: z-score of entry `C=CCNC(=O)[C@@H]1[C@H]2C(=O)O[C@H](c3ccccc3)[C@H](c3ccccc3)N2[C@H](c2ccc(OCCO)cc2)[C@@]12C(=O)Nc1ccc(C#CC3=CCCCC3)cc12`
RESULT: 1.18

QUERY: # query: z-score of entry `COC(=O)[C@@]1(Cc2ccc(OC)cc2)[C@@H]2[C@@H](CC(=O)[C@H]2CC(=O)C(=O)N(C)C)CN1C(=O)c1ccccc1`
RESULT: 1.61

QUERY: # query: z-score of entry `COc1ccc(CCNC(=O)[C@@]2(c3ccc([N+](=O)[O-])cc3)CC(=O)N(C3CCCCC3)[C@@H]2c2ccc(CO)cc2I)cc1`
RESULT: 0.0908

QUERY: # query: z-score of entry CC1C2C(CCCO)=CC(C3C(=O)N(C)C(=O)C23)N1Cc1cccc(OC(F)(F)F)c1 (centres undefined)
RESULT: -0.951
